target: PDGFRβ (Homo sapiens (Human), UniProt P09619); assay: PDGF-BB induced phosphorylation of PDGFRβ in fibroblasts (MRC5, HTRF); type: cell-based; conditions: MRC5 cells, PDGFBB stimulation; read-out: PDGFBB-induced PDGFRβ phosphorylation in MRC5 cells (IC50)
Sequence (P09619 33-1106): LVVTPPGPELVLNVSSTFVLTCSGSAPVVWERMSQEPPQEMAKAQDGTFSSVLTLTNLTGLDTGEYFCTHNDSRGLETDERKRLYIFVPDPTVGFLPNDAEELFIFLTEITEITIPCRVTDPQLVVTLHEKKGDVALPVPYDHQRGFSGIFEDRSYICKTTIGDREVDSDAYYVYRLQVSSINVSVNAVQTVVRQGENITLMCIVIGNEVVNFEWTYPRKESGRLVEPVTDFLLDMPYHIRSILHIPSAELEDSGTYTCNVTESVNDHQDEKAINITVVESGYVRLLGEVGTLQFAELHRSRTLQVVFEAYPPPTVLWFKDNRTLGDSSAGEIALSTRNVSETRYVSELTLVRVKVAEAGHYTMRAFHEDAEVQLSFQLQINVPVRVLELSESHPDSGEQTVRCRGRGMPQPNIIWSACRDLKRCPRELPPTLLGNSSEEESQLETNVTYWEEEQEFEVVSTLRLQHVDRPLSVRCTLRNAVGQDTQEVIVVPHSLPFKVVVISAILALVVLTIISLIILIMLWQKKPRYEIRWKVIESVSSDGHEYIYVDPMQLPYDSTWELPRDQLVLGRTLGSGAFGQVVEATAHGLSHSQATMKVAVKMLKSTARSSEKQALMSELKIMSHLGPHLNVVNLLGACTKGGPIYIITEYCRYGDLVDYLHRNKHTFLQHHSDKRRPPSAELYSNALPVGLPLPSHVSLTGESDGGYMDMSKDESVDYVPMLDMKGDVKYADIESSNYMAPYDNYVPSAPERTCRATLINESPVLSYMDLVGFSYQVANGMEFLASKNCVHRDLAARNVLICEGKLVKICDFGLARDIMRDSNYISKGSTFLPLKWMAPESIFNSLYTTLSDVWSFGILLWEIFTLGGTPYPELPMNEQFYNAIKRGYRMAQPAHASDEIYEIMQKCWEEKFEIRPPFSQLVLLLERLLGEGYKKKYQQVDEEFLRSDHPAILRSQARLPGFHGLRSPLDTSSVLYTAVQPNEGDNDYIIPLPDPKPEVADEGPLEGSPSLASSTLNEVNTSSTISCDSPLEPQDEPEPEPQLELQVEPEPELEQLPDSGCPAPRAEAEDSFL
Where a name gives a salt, the structure may show the parent alone.
The following compounds are listed with their measured IC50 values.
Kindly answer with a numeric value in nM, unit omitted.

Reference set, count: 2
COC(=O)c1cc2c(cc1C)/C(=C(/Nc1ccc(C(=O)NCCN3CCN(S(C)(=O)=O)CC3)cc1)c1ccccc1)C(=O)N2 : 3.33
COC(=O)c1cc2c(cc1C)/C(=C(/Nc1ccc(C(=O)NCCCN3CCN(C)CC3)cc1)c1ccccc1)C(=O)N2 [Example 21, formate] : 35.1

# get_value(readout='IC50', item= COC(=O)c1cc2c(cc1C)/C(=C(/Nc1ccc(C(=O)N3CCC(O)(CN4CCCC4)CC3)cc1)c1ccccc1)C(=O)N2 [Example 37, formate] )
5.28

====

The following molecules are listed with their measured clearance values.
assay: Pharmacokinetic measurements in rats (i.v., i.t., oral); type: in vivo; conditions: male, CD, rat, plasma, iv
Answer with the number, then the unit.

COC(=O)c1cc2c(cc1C)/C(=C(/Nc1ccc(C(=O)NCCN3CCNC(=O)C3)cc1)c1ccccc1)C(=O)N2 : 90 mL/min/kg
COC(=O)c1cc2c(cc1C)/C(=C(/Nc1ccc(C(=O)NCC(=O)N3CCN(CCO)CC3)cc1)c1ccccc1)C(=O)N2 : 75 mL/min/kg

# get_value(readout='clearance', item= COC(=O)c1ccc2c(c1)NC(=O)/C2=C(\Nc1ccc(N(C)C(=O)CN2CCN(C)CC2)cc1)c1ccccc1 [Nintedanib, reference compound] )
124 mL/min/kg

====

assay: PAMPA permeability assay; type: in vitro ADME; conditions: pH 7
Structures can show the parent of a compound that is named as a salt.
observable: recovery at 5 hr, 10 μM (%)
Kindly answer with a numeric value in %, unit omitted.

# get_value(readout='recovery at 5 hr, 10 μM', item= COC(=O)c1cc2c(cc1C)/C(=C(/Nc1ccc(C(=O)NC3CCN(C)CC3)cc1)c1ccccc1)C(=O)N2 [Example 18, formate] )
84.5

====

test system: MRC5 cells; experiment: Cell viability assay in MRC5 cells (MTT); settings: 300 nM
Structures can show the parent of a compound that is named as a salt.
Response field label takes class 1 when Cell viability at 300 nM (%) is strictly below 80% and class 0 in all other cases.

COC(=O)c1cc2c(cc1C)/C(=C(/Nc1ccc(C(=O)NCCCN3CCOCC3)cc1)c1ccccc1)C(=O)N2 [Example 29] : class 1
COCCNC(=O)CN1CCN(C(=O)c2ccc(N/C(=C3\C(=O)Nc4cc(C(=O)OC)c(C)cc43)c3ccccc3)cc2)CC1 [Example 39] : class 1
COC(=O)c1cc2c(cc1C)/C(=C(/Nc1ccc(C(=O)NCCCN3CCN(C)CC3)cc1)c1ccccc1)C(=O)N2 [Example 21, formate] : class 0
COC(=O)c1cc2c(cc1C)/C(=C(/Nc1ccc(C(=O)NCCN3CCCNC(=O)C3)cc1)c1ccccc1)C(=O)N2 [Example 56] : class 0
COC(=O)c1cc2c(cc1C)/C(=C(/Nc1ccc(C(=O)N(C)C3CCN(CCO)CC3)cc1)c1ccccc1)C(=O)N2 [Example 41] : class 1

We now examine a further molecule.
Criterion: Cell viability at 300 nM (%) strictly below 80%. Is it met by COC(=O)c1cc2c(cc1C)/C(=C(/Nc1ccc(C(=O)N3CCC(C(=O)NCCN(C)C)CC3)cc1)c1ccccc1)C(=O)N2 [Example 31] ?
class 1

====

assay: Pharmacokinetic measurements in rats (i.v., i.t., oral); type: in vivo; settings: rat, 0.1 h
Structures can show the parent of a compound that is named as a salt.
observable: Lung conc i.t./i.v. Ratio at time 0.1 h

COC(=O)c1cc2c(cc1C)/C(=C(/Nc1ccc(C(=O)NCC(=O)N3CCN(CCO)CC3)cc1)c1ccccc1)C(=O)N2 : 15.5
COC(=O)c1cc2c(cc1C)/C(=C(/Nc1ccc(C(=O)NCCN3CCC(N(C)C)CC3)cc1)c1ccccc1)C(=O)N2 : 9.8
COC(=O)c1cc2c(cc1C)/C(=C(/Nc1ccc(C(=O)NCCN3CCCN(C)CC3)cc1)c1ccccc1)C(=O)N2 : 7
COC(=O)c1cc2c(cc1C)/C(=C(/Nc1ccc(C(=O)NCC3CCN(C)CC3)cc1)c1ccccc1)C(=O)N2 [Example 3, formate] : 3

# get_value(readout='Lung conc i.t./i.v. Ratio at time 0.1 h', item= COC(=O)c1cc2c(cc1C)/C(=C(/Nc1ccc(C(=O)NCCN3CCNC(=O)C3)cc1)c1ccccc1)C(=O)N2 )
12

====

The following compounds are listed with their measured log10 of concentration at 24 h values.
test: Pharmacokinetic measurements in rats (i.v., i.t., oral); format: in vivo; conditions: male, CD, rat, lung, other: intra-tracheal; read-out: lung concentration (nM) at time 24 h
Counter-ions that a name gives are not always drawn.
Log scale reminder: concentration at 24 h in nM, then log10 taken.

COC(=O)c1cc2c(cc1C)/C(=C(/Nc1ccc(C(=O)NCC3CCN(C)CC3)cc1)c1ccccc1)C(=O)N2 [Example 3, formate] : 3.27
COC(=O)c1cc2c(cc1C)/C(=C(/Nc1ccc(C(=O)NCCN3CCN(C)CC3)cc1)c1ccccc1)C(=O)N2 : 2.57
COC(=O)c1cc2c(cc1C)/C(=C(/Nc1ccc(C(=O)NCCN3CCNC(=O)C3)cc1)c1ccccc1)C(=O)N2 : 4.02
COC(=O)c1ccc2c(c1)NC(=O)/C2=C(\Nc1ccc(N(C)C(=O)CN2CCN(C)CC2)cc1)c1ccccc1 [Nintedanib, reference compound] : 2.18

# get_value(readout='log10 of concentration at 24 h', item= COC(=O)c1cc2c(cc1C)/C(=C(/Nc1ccc(C(=O)NC3CCN(C)CC3)cc1)c1ccccc1)C(=O)N2 [Example 18, formate] )
3.66

====

assay: Pharmacokinetic measurements in rats (i.v., i.t., oral); assay type: in vivo; conditions: male, CD, rat, lung/plasma, other: intra-tracheal; read-out: lung/plasma conc ratio at time 1.5 h
Counter-ions that a name gives are not always drawn.
observable: Kp at 1.5 h
Number, no unit, nothing else.

# get_value(readout='Kp at 1.5 h', item= COC(=O)c1cc2c(cc1C)/C(=C(/Nc1ccc(C(=O)NCC3CCN(C)CC3)cc1)c1ccccc1)C(=O)N2 [Example 3, formate] )
1910

====

assay: Pharmacokinetic measurements in rats (i.v., i.t., oral); assay type: in vivo; conditions: male, CD, rat, lung/plasma, iv; read-out: lung/plasma ratio at time 0.1 h
Where a name gives a salt, the structure may show the parent alone.
The following compounds are listed with their measured Kp at 0.1 h values.
Number, no unit, nothing else.

COC(=O)c1cc2c(cc1C)/C(=C(/Nc1ccc(C(=O)NCCN3CCNC(=O)C3)cc1)c1ccccc1)C(=O)N2 : 17

Alright, here's another compound for you.
# get_value(readout='Kp at 0.1 h', item= COC(=O)c1cc2c(cc1C)/C(=C(/Nc1ccc(C(=O)NCC3CCN(C)CC3)cc1)c1ccccc1)C(=O)N2 [Example 3, formate] )
38

====

system: MRC5 cells; assay: Cell viability assay in MRC5 cells (MTT); details: 300 nM
Where a name gives a salt, the structure may show the parent alone.
The following compounds are listed with their measured Cell viability at 300 nM (%) values.
Kindly answer with a numeric value in %, unit omitted.

COC(=O)c1cc2c(cc1C)/C(=C(/Nc1ccc(C(=O)NCCCN(C)C)cc1)c1ccccc1)C(=O)N2 : 58.8
COC(=O)c1cc2c(cc1C)/C(=C(/Nc1ccc(C(=O)NC3CCN(C)CC3)cc1)c1ccccc1)C(=O)N2 [Example 18, formate] : 97.3
CNC(=O)CN(C)CCNC(=O)c1ccc(N/C(=C2\C(=O)Nc3cc(C(=O)OC)c(C)cc32)c2ccccc2)cc1 : 105.5
CNC(=O)CN1CCN(C(=O)c2ccc(N/C(=C3\C(=O)Nc4cc(C(=O)OC)c(C)cc43)c3ccccc3)cc2)CC1 : 67.8
COC(=O)c1cc2c(cc1C)/C(=C(/Nc1ccc(C(=O)NCC3CCN(CCO)CC3)cc1)c1ccccc1)C(=O)N2 [Example 14] : 107.9
COC(=O)c1cc2c(cc1C)/C(=C(/Nc1ccc(C(=O)NCCN3CCN(C(C)=O)CC3)cc1)c1ccccc1)C(=O)N2 : 74.4

# get_value(readout='Cell viability at 300 nM (%)', item= COC(=O)c1cc2c(cc1C)/C(=C(/Nc1ccc(C(=O)N3CCC(C(N)=O)(N4CCCCC4)CC3)cc1)c1ccccc1)C(=O)N2 )
123

# get_value(readout='Cell viability at 300 nM (%)', item= COC(=O)c1cc2c(cc1C)/C(=C(/Nc1ccc(C(=O)N3CC[C@@H](CN(C)C)[C@H](O)C3)cc1)c1ccccc1)C(=O)N2 )
63.1

# get_value(readout='Cell viability at 300 nM (%)', item= COC(=O)c1cc2c(cc1C)/C(=C(/Nc1ccc(C(=O)N3CCC(CO)(CN(C)C)CC3)cc1)c1ccccc1)C(=O)N2 )
63

# get_value(readout='Cell viability at 300 nM (%)', item= COC(=O)c1cc2c(cc1C)/C(=C(/Nc1ccc(C(=O)N(C)[C@H]3CN(C)C[C@@H]3O)cc1)c1ccccc1)C(=O)N2 )
74.4

# get_value(readout='Cell viability at 300 nM (%)', item= COC(=O)c1cc2c(cc1C)/C(=C(/Nc1ccc(C(=O)NCCN3CCC(CO)CC3)cc1)c1ccccc1)C(=O)N2 )
83.4

# get_value(readout='Cell viability at 300 nM (%)', item= COC(=O)c1cc2c(cc1C)/C(=C(/Nc1ccc(C(=O)NCCN3CCC(N(C)C)CC3)cc1)c1ccccc1)C(=O)N2 )
98.9

# get_value(readout='Cell viability at 300 nM (%)', item= COC(=O)c1cc2c(cc1C)/C(=C(/Nc1ccc(C(=O)N3CCN(CC(=O)NCCO)CC3)cc1)c1ccccc1)C(=O)N2 )
109.9
